The entries below are paired with their reported IC50.
Tested on: hepatocellular carcinoma HepG2
Assay: MTT cytotoxicity assay, HepG2
Assay type: cell-based, human
Details: treatment 48 h

molecule: COc1cccc(C=N[C@H](Cc2c[nH]c3ccccc23)C(=O)O)c1O
study.system: hepatocellular carcinoma HepG2
IC50: > 80 µM

Query (molecule): O=C(O)[C@@H](Cc1c[nH]c2ccccc12)N=Cc1c(O)ccc2ccccc12 ; field requested: IC50
> 80 µM

Let us now turn to CC(=O)[O-].CC(=O)[O-].[Ni+2] [Ni (CH3COO)2, reference compound]
> 80 µM

What do you have for O=C([O-])[C@@H](Cc1c[nH]c2ccccc12)N=Cc1c([O-])ccc2ccccc12.[Ni+2].c1cnc2c(c1)ccc1cccnc12 [Complex 3, [Ni (Trp-naph) (phen) (CH3OH)]] ?
28.1 µM

Subsequent entry: O=C(O)C(Cc1c[nH]c2ccccc12)N=Cc1ccccc1O (centres unmarked)
> 80 µM

Item: N.N.[Cl][Pt][Cl] [Cisplatin, reference compound]
13.9 µM

Would you kindly repeat that for O=C1[O][Ni][O]c2ccccc2C=N[C@@H]1Cc1c[nH]c2ccccc12.c1cnc2c(c1)ccc1cccnc12 [Complex 1, [Ni (Trp-sal) (phen) (CH3OH)]] ?
> 80 µM

Same for CO.CO.CO.COc1cccc(C=N[C@H](Cc2c[nH]c3ccccc23)C(=O)[O-])c1[O-].[Ni+2].c1cnc2c(c1)ccc1cccnc12 [Complex 2, [Ni (Trp-o-van) (phen) (CH3OH)]•2CH3OH]
47.3 µM
